# test_system: T1, GIP receptor
# T1 sequence (P48546 whole entry, species assumed, looked up): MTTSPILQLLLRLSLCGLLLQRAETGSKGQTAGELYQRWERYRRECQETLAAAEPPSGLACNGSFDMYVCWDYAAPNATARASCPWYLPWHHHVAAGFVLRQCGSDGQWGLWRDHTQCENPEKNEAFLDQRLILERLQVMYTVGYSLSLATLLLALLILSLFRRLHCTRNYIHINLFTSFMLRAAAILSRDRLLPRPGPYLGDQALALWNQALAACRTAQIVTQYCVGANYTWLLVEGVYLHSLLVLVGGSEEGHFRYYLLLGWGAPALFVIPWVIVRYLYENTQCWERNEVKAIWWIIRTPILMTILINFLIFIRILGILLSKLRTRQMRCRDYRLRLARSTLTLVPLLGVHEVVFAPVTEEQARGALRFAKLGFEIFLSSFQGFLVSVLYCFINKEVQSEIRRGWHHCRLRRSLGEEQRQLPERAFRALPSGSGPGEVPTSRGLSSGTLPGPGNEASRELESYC
# experiment_summary: cell-based or functional assay
Numbered stars: 1 amine (or outer) side, 2 acyl side, 3 side chain; on linkers, the order of the positions; unused ones are H or OH. Square brackets hold non-standard residues; d marks the D form. Primed or numbered codes have the meaning given here. Side chains are listed from the residue outwards. Ends that are not written are not given here. * marks the point of attachment. 40K‑TE PEG″ = 40 kDa PEG bound to Cys via thioether made from an iodoacetyl-functionalised PEG; γGlu = O=C(O)[C@H](CCC(=O)[*:2])N[*:1]; Desaminohistidyl = O=C(CCc1c[nH]cn1)*; Palmitoyl = CCCCCCCCCCCCCCCC(=O)*; Aib = CC(C)(N)C(=O)O
readout: EC50 (nM) at GIP receptor

Report EC50 (nM) at GIP receptor, nothing else, for this binder: Ac-H[dS]QGTFTSDK([γGlu-Palmitoyl])SKYLDERAAQDFVQWLLDT-NH2 [peptide of SEQ ID NO: 21]
4.5 nM

Report EC50 (nM) at GIP receptor, nothing else, for this binder: H[dA]QGTFTSDK([γGlu-Palmitoyl])SKYLDERAAQDFVQWLLDT-NH2 [peptide of SEQ ID NO: 56]
1.64 nM

Report EC50 (nM) at GIP receptor, nothing else, for this binder: H[Aib]QGTFTSDYSKYLDEKRA[Aib]EFVC(40K‑TE PEG″)WLLDE-NH2 [peptide of SEQ ID NO: 16]
465 nM

Report EC50 (nM) at GIP receptor, nothing else, for this binder: H[Aib]QGTFTSDK([γGlu-γGlu-Palmitoyl])SKYLD[Aib]RAAQDFVQWLMKTK[dE]-OH [peptide of SEQ ID NO: 37]
3.3 nM

Report EC50 (nM) at GIP receptor, nothing else, for this binder: H[Aib]QGTFTSDK([γGlu-Palmitoyl])SKYLD[Aib]RAAQDFVQWLMKTK[dE]-OH [peptide of SEQ ID NO: 60]
147 nM

Report EC50 (nM) at GIP receptor, nothing else, for this binder: HXQGTFTSDKSKYLDERAAQDFVQWLMDT (aib at 2; Lys 10 with γEγEC16; C-terminal amide) [peptide of SEQ ID NO: 61]
0.676 nM

Report EC50 (nM) at GIP receptor, nothing else, for this binder: H[Aib]QGTFTSDK([γGlu-γGlu-Palmitoyl])SKYLD[Aib]RAAQDFVQWLMDTK[dA]-OH [peptide of SEQ ID NO: 32]
2.08 nM

Report EC50 (nM) at GIP receptor, nothing else, for this binder: H[dS]QGTFTSDK([γGlu-Palmitoyl])SKYLDERAAQDFVQWLLKGRG-NH2 [peptide of SEQ ID NO: 27]
2.12 nM

Report EC50 (nM) at GIP receptor, nothing else, for this binder: H[dS]QGTFTSDK([γGlu-Palmitoyl])SKYLDERAAQDFVQWLLDGRK-NH2 [peptide of SEQ ID NO: 28]
2.84 nM

Report EC50 (nM) at GIP receptor, nothing else, for this binder: [Desaminohistidyl][dS]QGTFTSDK([γGlu-Palmitoyl])SKYLDERAAQDFVQWLLDT-NH2 [peptide of SEQ ID NO: 20]
1.38 nM

Report EC50 (nM) at GIP receptor, nothing else, for this binder: H[dS]QGTFTSDK([γGlu-Palmitoyl])SKYLDERAAQDFVQWLLDGRG-NH2 [peptide of SEQ ID NO: 19]
0.812 nM
